assay: Pharmacokinetics of intranasal esketamine 28, 56, 84 mg in healthy subjects (Example 9); conditions: both, human, plasma, inhaled or intranasal, 56 mg, tmax, esketamine in plasma, healthy subjects, single intranasal 56 mg (Treatment B), median
Recorded metric: Tmax (min)
Give the quantity in min, number only.

Query :: Input CN[C@]1(c2ccccc2Cl)CCCCC1=O , output reported Tmax.
Result :: 40.2

---

test: Pharmacokinetics of esketamine nasal spray, data assembled from 14 Phase 1 studies (Example 10); details: human, plasma, inhaled or intranasal, 56 mg, tmax typically observed after the first nasal spray, 56 mg
Recorded metric: Tmax

Query :: Input CN[C@]1(c2ccccc2Cl)CCCCC1=O , output reported Tmax.
Result :: 30 to 45 min

---

assay: Pharmacokinetics of esketamine nasal spray, data assembled from 14 Phase 1 studies (Example 10); settings: human, plasma, inhaled or intranasal, 28 mg, tmax typically observed after the first nasal spray, 28 mg
Recorded metric: Tmax

Query :: Input CN[C@]1(c2ccccc2Cl)CCCCC1=O , output reported Tmax.
Result :: 20 to 40 min

All values here come from patent US20230121313A1.
